Here the recorded Wheal is given for each entry.
Test system: anaesthesized rats
measurement-notes: wheal test, intradermal injection
Format: in vivo, rat
condition: Table I; 10 ug peptide intradermally
Non-standard residues stand in square brackets, D forms with d. Residues, ends and D or L forms follow the SMILES beside them. *: point of attachment. dPhe(4-Cl) = N[C@H](Cc1ccc(Cl)cc1)C(=O)O; d2Nal = N[C@H](Cc1ccc2ccccc2c1)C(=O)O; Lys(iPr) = CC(C)NCCCC[C@H](N)C(=O)O; Lys(Me2) = CN(C)CCCC[C@H](N)C(=O)O; Orn(iPr) = CC(C)NCCC[C@H](N)C(=O)O; d3Pal = N[C@H](Cc1cccnc1)C(=O)O; Nicotinoyl = O=C(c1cccnc1)*
Lab book: enter the figure in mm^2 /10, no units written.

1. CC(=O)N[C@H](Cc1ccc2ccccc2c1)C(=O)N[C@H](Cc1ccc(Cl)cc1)C(=O)N[C@H](Cc1cccnc1)C(=O)N[C@@H](CO)C(=O)N[C@@H](Cc1ccc(O)cc1)C(=O)N[C@H](CCCCNC(=O)c1cccnc1)C(=O)N[C@@H](CC(C)C)C(=O)N[C@@H](CCCCNC(C)C)C(=O)N1CCC[C@H]1C(=O)N[C@H](C)C(N)=O [compound 24315] (Ac-[d2Nal][dPhe(4-Cl)][d3Pal]SY[dK](Nicotinoyl)L[Lys(iPr)]P[dA]-NH2)
79.0
2. CC(=O)N[C@H](Cc1ccc2ccccc2c1)C(=O)N[C@H](Cc1ccc(Cl)cc1)C(=O)N[C@H](Cc1cccnc1)C(=O)N[C@@H](CO)C(=O)N[C@@H](Cc1ccc(O)cc1)C(=O)N[C@H](CCCCNC(=O)c1cccnc1)C(=O)N[C@@H](CC(C)C)C(=O)N[C@@H](CCCCN(C)C)C(=O)N1CCC[C@H]1C(=O)N[C@H](C)C(N)=O [compound 24443] (Ac-[d2Nal][dPhe(4-Cl)][d3Pal]SY[dK](Nicotinoyl)L[Lys(Me2)]P[dA]-NH2)
122.7

# next compound below
Dear colleague, I am looking for the recorded Wheal of the following compound: CC[C@H](C)[C@H](NC(=O)[C@H](CO)NC(=O)[C@@H](Cc1cccnc1)NC(=O)[C@@H](Cc1ccc(Cl)cc1)NC(=O)[C@@H](Cc1ccc2ccccc2c1)NC(C)=O)C(=O)N[C@H](CCCCNC(=O)c1cccnc1)C(=O)N[C@@H](CC(C)C)C(=O)N[C@@H](CCCNC(C)C)C(=O)N1CCC[C@H]1C(=O)N[C@H](C)C(N)=O [compound 25145] (Ac-[d2Nal][dPhe(4-Cl)][d3Pal]SI[dK](Nicotinoyl)L[Orn(iPr)]P[dA]-NH2)
116.5

---

System: anaesthesized rats
measurement-notes: wheal test, intradermal injection
Type: in vivo, rat
condition: Table I; 10 ug peptide intradermally
Non-standard residues stand in square brackets, D forms with d. Residues, ends and D or L forms follow the SMILES beside them. *: point of attachment. dPhe(4-Cl) = N[C@H](Cc1ccc(Cl)cc1)C(=O)O; d2Nal = N[C@H](Cc1ccc2ccccc2c1)C(=O)O; Lys(iPr) = CC(C)NCCCC[C@H](N)C(=O)O; Pyrazinecarbonyl = O=C(c1cnccn1)*; d3Pal = N[C@H](Cc1cccnc1)C(=O)O; Nicotinoyl = O=C(c1cccnc1)*; Picolinoyl = O=C(c1ccccn1)*; Orn = NCCC[C@H](N)C(=O)O; Me2Gly = CN(C)CC(=O)*
measured-metric: Wheal (mm^2 /10)
Lab book: enter the figure in mm^2 /10, no units written.

Consider the worked cases shown below.
1. CC(=O)N[C@H](Cc1ccc2ccccc2c1)C(=O)N[C@H](Cc1ccc(Cl)cc1)C(=O)N[C@H](Cc1cccnc1)C(=O)N[C@@H](CO)C(=O)N[C@@H](CCCCNC(=O)c1cnccn1)C(=O)N[C@H](CCCCNC(=O)c1cnccn1)C(=O)N[C@@H](CC(C)C)C(=O)N[C@@H](CCCCNC(C)C)C(=O)N1CCC[C@H]1C(=O)N[C@H](C)C(N)=O [compound 25650] (Ac-[d2Nal][dPhe(4-Cl)][d3Pal]SK(Pyrazinecarbonyl)[dK](Pyrazinecarbonyl)L[Lys(iPr)]P[dA]-NH2)
110.2
2. CC(=O)N[C@H](Cc1ccc2ccccc2c1)C(=O)N[C@H](Cc1ccc(Cl)cc1)C(=O)N[C@H](Cc1cccnc1)C(=O)N[C@@H](CO)C(=O)N[C@@H](CCCNC(=N)N)C(=O)N[C@H](CCCCNC(=O)c1cccnc1)C(=O)N[C@@H](CC(C)C)C(=O)N[C@@H](CCCCNC(C)C)C(=O)N1CCC[C@H]1C(=O)N[C@H](C)C(N)=O [compound 25335] (Ac-[d2Nal][dPhe(4-Cl)][d3Pal]SR[dK](Nicotinoyl)L[Lys(iPr)]P[dA]-NH2)
196.9
3. CC(=O)N[C@H](Cc1ccc2ccccc2c1)C(=O)N[C@H](Cc1ccc(Cl)cc1)C(=O)N[C@H](Cc1cccnc1)C(=O)N[C@@H](CO)C(=O)N[C@@H](CCCCNC(=O)CN(C)C)C(=O)N[C@H](CCCCNC(=O)c1cccnc1)C(=O)N[C@@H](CC(C)C)C(=O)N[C@@H](CCCCNC(C)C)C(=O)N1CCC[C@H]1C(=O)N[C@H](C)C(N)=O [compound 25509] (Ac-[d2Nal][dPhe(4-Cl)][d3Pal]SK(Me2Gly)[dK](Nicotinoyl)L[Lys(iPr)]P[dA]-NH2)
110

Dear colleague, I am looking for the recorded Wheal of the following compound: CC(=O)N[C@H](Cc1ccc2ccccc2c1)C(=O)N[C@H](Cc1ccc(Cl)cc1)C(=O)N[C@H](Cc1cccnc1)C(=O)N[C@@H](CO)C(=O)N[C@@H](CCCCNC(=O)c1ccccn1)C(=O)N[C@H](CCCCNC(=O)c1cccnc1)C(=O)N[C@@H](CC(C)C)C(=O)N[C@@H](CCCCNC(C)C)C(=O)N1CCC[C@H]1C(=O)N[C@H](C)C(N)=O [compound 25510] (Ac-[d2Nal][dPhe(4-Cl)][d3Pal]SK(Picolinoyl)[dK](Nicotinoyl)L[Lys(iPr)]P[dA]-NH2)
116

Dear colleague, I am looking for the recorded Wheal of the following compound: CC(=O)N[C@H](Cc1ccc2ccccc2c1)C(=O)N[C@H](Cc1ccc(Cl)cc1)C(=O)N[C@H](Cc1cccnc1)C(=O)N[C@@H](CO)C(=O)N[C@@H](Cc1ccc(O)cc1)C(=O)N[C@H](CCCCNC(=O)c1cccnc1)C(=O)N[C@@H](CC(C)C)C(=O)N[C@@H](CCCN)C(=O)N1CCC[C@H]1C(=O)N[C@H](C)C(N)=O [compound 24748] (Ac-[d2Nal][dPhe(4-Cl)][d3Pal]SY[dK](Nicotinoyl)L[Orn]P[dA]-NH2)
129.4

---

Here the recorded Wheal is given for each entry.
Test system: anaesthesized rats
measurement-notes: wheal test, intradermal injection
Assay type: in vivo, rat
condition: Table I; 10 ug peptide intradermally
Non-standard residues stand in square brackets, D forms with d. Residues, ends and D or L forms follow the SMILES beside them. *: point of attachment. dPhe(4-Cl) = N[C@H](Cc1ccc(Cl)cc1)C(=O)O; d2Nal = N[C@H](Cc1ccc2ccccc2c1)C(=O)O; Lys(iPr) = CC(C)NCCCC[C@H](N)C(=O)O; 3Pal = N[C@@H](Cc1cccnc1)C(=O)O; d3Pal = N[C@H](Cc1cccnc1)C(=O)O; Nicotinoyl = O=C(c1cccnc1)*; Bz = O=C(c1ccccc1)*
Lab book: enter the figure in mm^2 /10, no units written.

Consider the worked cases shown below.
1) CC(=O)N[C@H](Cc1ccc2ccccc2c1)C(=O)N[C@H](Cc1ccc(Cl)cc1)C(=O)N[C@H](Cc1cccnc1)C(=O)N[C@@H](CO)C(=O)N[C@@H](Cc1ccc(O)cc1)C(=O)N[C@H](CCCNC(=N)N)C(=O)N[C@@H](CC(C)C)C(=O)N[C@@H](CCCCNC(=O)c1cccnc1)C(=O)N1CCC[C@H]1C(=O)N[C@H](C)C(N)=O [compound 24749] (Ac-[d2Nal][dPhe(4-Cl)][d3Pal]SY[dR]LK(Nicotinoyl)P[dA]-NH2)
136.3
2) CC(=O)N[C@H](Cc1ccc2ccccc2c1)C(=O)N[C@H](Cc1ccc(Cl)cc1)C(=O)N[C@H](Cc1cccnc1)C(=O)N[C@@H](CO)C(=O)N[C@@H](Cc1cccnc1)C(=O)N[C@H](CCCCNC(=O)c1cccnc1)C(=O)N[C@@H](CC(C)C)C(=O)N[C@@H](CCCCNC(C)C)C(=O)N1CCC[C@H]1C(=O)N[C@H](C)C(N)=O [compound 25383] (Ac-[d2Nal][dPhe(4-Cl)][d3Pal]S[3Pal][dK](Nicotinoyl)L[Lys(iPr)]P[dA]-NH2)
132.8

# next molecule below
Dear colleague, I am looking for the recorded Wheal of the following molecule: CC(=O)N[C@H](Cc1ccc2ccccc2c1)C(=O)N[C@H](Cc1ccc(Cl)cc1)C(=O)N[C@H](Cc1cccnc1)C(=O)N[C@@H](CO)C(=O)N[C@@H](CCCNC(=N)N)C(=O)N[C@H](CCCCNC(=O)c1ccccc1)C(=O)N[C@@H](CC(C)C)C(=O)N[C@@H](CCCCNC(C)C)C(=O)N1CCC[C@H]1C(=O)N[C@H](C)C(N)=O [compound 25385] (Ac-[d2Nal][dPhe(4-Cl)][d3Pal]SR[dK](Bz)L[Lys(iPr)]P[dA]-NH2)
169.0
